# tested-system: MC4-R (Homo sapiens, UniProt P32245)
# Sequence (P32245 whole entry): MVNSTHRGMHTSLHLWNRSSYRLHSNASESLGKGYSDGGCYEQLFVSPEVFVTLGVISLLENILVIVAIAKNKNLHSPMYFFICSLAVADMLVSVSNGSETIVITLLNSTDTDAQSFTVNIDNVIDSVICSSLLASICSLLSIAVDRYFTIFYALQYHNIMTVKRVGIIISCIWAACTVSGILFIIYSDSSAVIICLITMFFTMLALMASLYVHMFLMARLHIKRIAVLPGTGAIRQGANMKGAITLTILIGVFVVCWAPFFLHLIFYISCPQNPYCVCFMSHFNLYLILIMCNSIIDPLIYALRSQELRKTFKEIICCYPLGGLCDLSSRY
# protocol-summary: Assay for neutral antagonist, Schild analysis (pA2) against NDP-α-MSH
# Assay type: cell-based
# Set-up: expressed in transfected cells; host or cells: HEK-293
# condition-label: Schild analysis vs NDP-α-MSH; read-out: pA2 value as antagonist at MC4-R in a normal system (converted)
Positions of bridges follow the written chain, without caps; N, C: chain ends. Non-standard residues stand in square brackets, D forms with d. Residues, ends and D or L forms follow the SMILES beside them. *: point of attachment. dPhe(4-Cl) = N[C@H](Cc1ccc(Cl)cc1)C(=O)O; 2Nal = N[C@@H](Cc1ccc2ccccc2c1)C(=O)O; d2Nal = N[C@H](Cc1ccc2ccccc2c1)C(=O)O; Nle = CCCC[C@H](N)C(=O)O; Ahp = NCCCCCCC(=O)O; Bn = c1ccc(C*)cc1
# Kb per record follows
Please give a number only; it is taken to be in nM.

| compound | measure-unit | Kb |
| --- | --- | --- |
| CC(C)C[C@@H]1CN(C(=O)[C@H](N)Cc2ccc(Cl)cc2Cl)[C@@H](CCCNC(=N)N)CN1CCc1ccc2ccccc2c1 | nM | 20 |
| C[C@@H]1CN(C(=O)[C@H](N)Cc2ccc(Cl)cc2Cl)[C@@H](CCCNC(=N)N)CN1CCc1ccc2ccccc2c1 | nM | 15.8 |
| CCCC[C@H](NC(C)=O)C(=O)N[C@H]1CC(=O)NCCCC[C@@H](C(=O)O)NC(=O)[C@H](Cc2ccc3ccccc3c2)NC(=O)[C@H](CCCNC(=N)N)NC(=O)[C@@H](Cc2ccc3ccccc3c2)NC(=O)[C@H](Cc2c[nH]cn2)NC1=O [Example 34] (Ac-[Nle]DH[d2Nal]R[2Nal]K-OH; lactam 2-7) | nM | 7.94 |

### Prompt Item N=C(N)NCCC[C@H]1C(=O)N2C(CC[C@@H]2COc2ccc3ccccc3c2)N1C(=O)[C@@H](Cc1ccc(Cl)cc1Cl)NC(=O)[C@@H]1Cc2ccccc2CN1 (some centres unmarked) : provide Kb
### Response 7.94

### Prompt Supply recorded Kb for N=C(N)NCCC[C@H](NC(=O)[C@@H](Cc1ccc(Cl)cc1)NC(=O)[C@H](COCc1ccccc1)NC(=O)CCCCCCN)C(=O)N[C@@H](Cc1c[nH]c2ccccc12)C(=O)N[C@@H](CC(=O)O)C(N)=O [Example 13] (H-[Ahp]S(Bn)[dPhe(4-Cl)]RWD-NH2) here.
### Response 50.1
